Ref: patent US20250376519A1

# TARGET ENTITY: T1, human DLL3 on cells (human, UniProt Q9NYJ7 27-618)
# T1 construct: Endogenous on H1184 and SHP77; Cell line is named under assay; also called H1184; DLL3/H82
# T1 sequence: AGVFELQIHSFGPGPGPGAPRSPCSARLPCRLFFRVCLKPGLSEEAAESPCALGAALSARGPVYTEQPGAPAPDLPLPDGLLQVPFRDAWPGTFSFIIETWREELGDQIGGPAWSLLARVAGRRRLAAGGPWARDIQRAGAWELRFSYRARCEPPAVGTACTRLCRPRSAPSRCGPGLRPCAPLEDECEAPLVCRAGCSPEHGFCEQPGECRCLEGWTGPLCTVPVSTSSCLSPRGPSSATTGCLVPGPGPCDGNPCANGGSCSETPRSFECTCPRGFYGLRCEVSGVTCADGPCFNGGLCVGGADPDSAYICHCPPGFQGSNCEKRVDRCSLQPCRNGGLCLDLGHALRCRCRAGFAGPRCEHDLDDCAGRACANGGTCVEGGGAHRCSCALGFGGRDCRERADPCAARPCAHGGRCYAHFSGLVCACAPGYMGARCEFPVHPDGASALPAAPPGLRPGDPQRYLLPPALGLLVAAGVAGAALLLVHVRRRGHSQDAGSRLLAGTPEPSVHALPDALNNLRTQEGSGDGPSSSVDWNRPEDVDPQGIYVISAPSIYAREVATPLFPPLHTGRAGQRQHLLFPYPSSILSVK
# PROCEDURE SUMMARY: flow cytometry, H1184 cells
REPORTED METRIC: EC50 (nM)
Supply the numeric figure in nM, leaving out any unit text.

* hu6L2H12 (antibody, human IgG1, kappa, V domains shown) VH: EVQLVQSGSELKKPGASVKVSCKASGYTFTDYYMNWVRQAPGQGLEWMGIINPYSGVTIYNHKFKGRFALSVDKSSNTAYLQISSLKAEDTAVYYCARQDSLLDYAMDYWGQGTTVTVSS VL: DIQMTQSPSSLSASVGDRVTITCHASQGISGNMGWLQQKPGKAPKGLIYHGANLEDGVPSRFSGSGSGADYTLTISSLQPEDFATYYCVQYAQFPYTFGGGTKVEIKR | 0.1
* hu6L4H11 (antibody, human IgG1, kappa, V domains shown) VH: EVQLVQSGSELKKPGASVKVSCKASGYTFTDYYMNWVKQAPGQGLEWMGIINPYSGVTIYNHKFKGRFVLSVDKSSNTAYLQISSLKAEDTAVYYCARQDSLLDYAMDYWGQGTTVTVSS VL: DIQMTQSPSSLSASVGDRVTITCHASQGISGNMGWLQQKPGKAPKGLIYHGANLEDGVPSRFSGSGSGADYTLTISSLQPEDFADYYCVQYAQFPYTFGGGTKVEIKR | 0.07

Read the next record carefully.
What EC50 value was documented for this binder, hu6L2H2 (antibody, human IgG1, kappa, V domains shown) VH: EVQLVQSGAEVKKPGASVKVSCKASGYTFTDYYMNWVRQAPGQRLEWMGIINPYSGVTIYNHKFKGRVTLTVDKSANTAYMELSSLRSEDTAVYYCARQDSLLDYAMDYWGQGTTVTVSS VL: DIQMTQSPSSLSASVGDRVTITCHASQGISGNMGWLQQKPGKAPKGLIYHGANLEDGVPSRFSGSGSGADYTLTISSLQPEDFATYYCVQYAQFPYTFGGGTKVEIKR ?
0.06
